B1: library; a variant is named by its letters at N, in order (parent)
chain: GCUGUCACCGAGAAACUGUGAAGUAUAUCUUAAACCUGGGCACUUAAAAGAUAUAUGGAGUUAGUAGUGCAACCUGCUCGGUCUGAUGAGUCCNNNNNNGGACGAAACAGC

Variants of: B1
measurement.notes: normalized RNA/DNA level without ligand (relative to sTRSVctl = 100) (log10 (% of sTRSVctl)); HEK293T; ligand: cyclic di-GMP (c-di-GMP-II aptamer); higher = less ribozyme self-cleavage, higher mRNA level
experimental.parameters: reporter: mCherry (pCS4076), ligand present: no
value.type: normalized RNA/DNA level without ligand (log10)

changes: UGCCCC
recorded.value: 1.86
//
changes: CUCAAC
recorded.value: 1.66
//
changes: UCACCA
recorded.value: 1.69
//
changes: GACUCG
recorded.value: 1.78
//
changes: GCCAAG
recorded.value: 1.54
//
changes: CACUCA
recorded.value: 1.39
//
changes: CAGAAU
recorded.value: 1.38
//
changes: GCCGUU
recorded.value: 1.6
//
changes: GUUCUU
recorded.value: 1.7
//
changes: UUUUCU
recorded.value: 1.78
//
changes: UCGUCU
recorded.value: 1.72
//
changes: AAGGAG
recorded.value: 1.54
//
changes: AGUUCU
recorded.value: 1.69
//
changes: GCGAAU
recorded.value: 1.45
//
changes: AUGUUG
recorded.value: 1.56
//
changes: UAAAAC
recorded.value: 1.7
//
changes: GUACUG
recorded.value: 1.58
//
changes: GCCGGG
recorded.value: 1.86
//
changes: CCUGCC
recorded.value: 1.79
//
changes: CCUACA
recorded.value: 1.53
//
changes: GCAGGC
recorded.value: 1.58
//
changes: UCAGAU
recorded.value: 1.49
